assay system: NaV1.6 (Homo sapiens (Human), UniProt Q9UQD0)
assay notes: Electrophysiological Assay (EP), patch voltage clamp, NaV1.6;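 further: sodium current recorded at ambient temperature, channels held inactivated then briefly repolarized to −150 mV for 20 ms before a test pulse, control currents in 0.5% DMSO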
Type: cell-based
assay context: HEK-293 cells, whole-cell patch clamp
Sequence (Q9UQD0 whole entry): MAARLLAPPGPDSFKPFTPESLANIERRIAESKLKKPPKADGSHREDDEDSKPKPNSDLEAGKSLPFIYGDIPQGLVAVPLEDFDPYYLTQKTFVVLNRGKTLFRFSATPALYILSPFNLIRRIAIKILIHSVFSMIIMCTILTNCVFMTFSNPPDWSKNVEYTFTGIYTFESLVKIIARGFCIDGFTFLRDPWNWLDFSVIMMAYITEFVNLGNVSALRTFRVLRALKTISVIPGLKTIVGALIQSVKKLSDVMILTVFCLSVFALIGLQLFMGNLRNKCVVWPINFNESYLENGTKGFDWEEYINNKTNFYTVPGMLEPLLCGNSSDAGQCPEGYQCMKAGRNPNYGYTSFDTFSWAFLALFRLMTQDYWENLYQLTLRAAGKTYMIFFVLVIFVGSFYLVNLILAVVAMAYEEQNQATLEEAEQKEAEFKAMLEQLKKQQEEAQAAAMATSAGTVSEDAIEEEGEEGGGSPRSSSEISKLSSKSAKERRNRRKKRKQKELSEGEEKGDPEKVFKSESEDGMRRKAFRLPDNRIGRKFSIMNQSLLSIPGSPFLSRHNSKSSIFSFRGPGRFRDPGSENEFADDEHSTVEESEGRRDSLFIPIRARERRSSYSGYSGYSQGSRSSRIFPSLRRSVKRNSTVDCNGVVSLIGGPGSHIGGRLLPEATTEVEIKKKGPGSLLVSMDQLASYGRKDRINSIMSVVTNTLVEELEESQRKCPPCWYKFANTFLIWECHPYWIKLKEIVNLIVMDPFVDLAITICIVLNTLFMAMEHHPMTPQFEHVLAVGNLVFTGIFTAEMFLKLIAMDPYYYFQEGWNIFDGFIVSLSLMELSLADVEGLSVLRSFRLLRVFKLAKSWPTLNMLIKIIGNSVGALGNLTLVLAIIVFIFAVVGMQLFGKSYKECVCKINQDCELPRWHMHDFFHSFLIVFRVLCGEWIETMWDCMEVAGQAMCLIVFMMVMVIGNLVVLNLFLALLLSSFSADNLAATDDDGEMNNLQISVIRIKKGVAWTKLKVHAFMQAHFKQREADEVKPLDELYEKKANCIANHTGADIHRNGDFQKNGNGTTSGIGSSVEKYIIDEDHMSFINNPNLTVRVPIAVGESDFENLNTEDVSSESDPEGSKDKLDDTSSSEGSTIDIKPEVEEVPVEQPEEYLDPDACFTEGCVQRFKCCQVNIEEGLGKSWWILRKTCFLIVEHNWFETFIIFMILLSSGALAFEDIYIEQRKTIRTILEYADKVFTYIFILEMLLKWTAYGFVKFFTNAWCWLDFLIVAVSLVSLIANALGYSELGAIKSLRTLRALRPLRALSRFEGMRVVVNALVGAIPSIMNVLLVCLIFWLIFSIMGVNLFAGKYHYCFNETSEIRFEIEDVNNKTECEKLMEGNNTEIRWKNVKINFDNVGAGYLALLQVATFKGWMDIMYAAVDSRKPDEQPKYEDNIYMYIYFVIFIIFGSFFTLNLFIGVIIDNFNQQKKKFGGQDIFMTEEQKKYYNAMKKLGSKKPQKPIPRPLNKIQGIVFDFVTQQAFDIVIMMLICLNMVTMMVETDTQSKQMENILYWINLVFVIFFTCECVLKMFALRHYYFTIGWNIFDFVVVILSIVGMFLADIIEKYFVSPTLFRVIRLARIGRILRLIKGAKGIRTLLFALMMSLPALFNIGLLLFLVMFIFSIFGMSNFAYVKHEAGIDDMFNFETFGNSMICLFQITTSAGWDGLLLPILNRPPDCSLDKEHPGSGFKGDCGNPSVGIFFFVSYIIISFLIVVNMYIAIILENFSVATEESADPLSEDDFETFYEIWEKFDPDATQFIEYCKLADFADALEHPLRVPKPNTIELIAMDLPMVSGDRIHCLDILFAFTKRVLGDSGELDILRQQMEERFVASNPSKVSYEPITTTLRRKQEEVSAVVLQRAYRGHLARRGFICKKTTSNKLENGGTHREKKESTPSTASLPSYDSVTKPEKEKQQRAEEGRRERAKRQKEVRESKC
Counter-ions that a name gives are not always drawn.
Recorded measurements of pIC50, one per entry
Remember the convention: pIC50 equals -log10 of concentration in molar.

Past entries and their recorded results:
compound: O=S(=O)(Nc1ncns1)c1c(F)cc(NCc2ccccc2CN2CCC2)c(Cl)c1F [Example 327, formate]
pIC50: 9.00

compound: C[C@H](Nc1cc(F)c(S(=O)(=O)Nc2nccs2)cc1Cl)c1cccc(F)c1
pIC50: 7.72

compound: O=S(=O)(Nc1cscn1)c1cc(Cl)c(NCc2c(F)ccc3cn[nH]c23)cc1F [Example 334, formate]
pIC50: 8.70

compound: O=S(=O)(Nc1nccs1)c1cc(Cl)c(N[C@@H](CN2CCC2)c2ccccc2)cc1F [Example 66, 2,2,2-trifluoroacetate]
pIC50: 5.95

Field: next compound
Exercise: Suppose we examine the compound O=S(=O)(Nc1cscn1)c1cc(Cl)c(NCc2c(F)cccc2CN2CC(F)C2)cc1F ; what pIC50 value has been reported?
Key: 6.39

* * *

Recorded measurements of IC50, one per entry
assay system: NaV1.6 (Homo sapiens (Human), UniProt Q9UQD0)
assay notes: Sodium Influx Assay (Flux), NaV1.6;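 further: Tetracycline-induced cells, compounds applied for one hour at room temperature with modulators holding channels open, IC50 from percent inhibition of sodium influx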
Format: cell-based
assay context: Trex HEK293 cells, ANG2 dye, inactivated state
Sequence (Q9UQD0 whole entry, looked up): as the sequence (Q9UQD0 whole entry) above
Sequence (Q07699 whole entry partner, looked up): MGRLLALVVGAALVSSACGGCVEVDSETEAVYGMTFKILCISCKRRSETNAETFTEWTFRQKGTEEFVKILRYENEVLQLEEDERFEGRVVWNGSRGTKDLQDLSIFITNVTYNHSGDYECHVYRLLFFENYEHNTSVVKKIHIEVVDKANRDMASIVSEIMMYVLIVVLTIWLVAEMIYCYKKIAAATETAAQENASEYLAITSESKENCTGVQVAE
Structures can show the parent of a compound that is named as a salt.
Numbers only here, please. The scale is nM.

Past entries and their recorded results:
molecule: Cc1cc(NS(=O)(=O)c2c(F)cc(NCc3c(F)ccc(F)c3CN3CCC3)cc2F)no1 [Example 216, 2,2,2-trifluoroacetate]
assay system: NaV1.6 (Homo sapiens (Human), UniProt Q9UQD0)
measurement type: IC50
number: 3120

molecule: CC[C@H](Nc1cc(F)c(S(=O)(=O)Nc2nccs2)cc1C)c1ccccc1 [Example 126]
assay system: NaV1.6 (Homo sapiens (Human), UniProt Q9UQD0)
measurement type: IC50
number: 114

molecule: O=S(=O)(Nc1cscn1)c1c(F)cc(NCc2cccc(F)c2CN2CCC2)cc1F [Example 196, 2,2,2-trifluoroacetate]
assay system: NaV1.6 (Homo sapiens (Human), UniProt Q9UQD0)
measurement type: IC50
number: 187

molecule: O=S(=O)(Nc1cscn1)c1ccc(NCc2c(F)cccc2CN2CCC2)c(Cl)c1F [Example 192, formate]
assay system: NaV1.6 (Homo sapiens (Human), UniProt Q9UQD0)
measurement type: IC50
number: 72

Exercise: Suppose we examine the molecule O=S(=O)(Nc1cscn1)c1c(F)cc(NCc2c(F)cccc2CN2CC3(CCO3)C2)cc1F [Example 156, formate] ; what IC50 value has been reported?
Key: 146

Exercise: Suppose we examine the molecule COC1(C)CN(Cc2cccc(F)c2CNc2cc(F)c(S(=O)(=O)Nc3cscn3)c(F)c2)C1 [Example 172, formate] ; what IC50 value has been reported?
Key: 78

Exercise: Suppose we examine the molecule CN1CC(Oc2cccc(F)c2CNc2cc(F)c(S(=O)(=O)Nc3cscn3)c(F)c2)C1 [Example 326, formate] ; what IC50 value has been reported?
Key: 125

* * *

assay system: UniProt:Q9UQD0
assay notes: Sodium Influx Assay (Flux), NaV1.6
Format: cell-based
assay context: Trex HEK293 cells, ANG2 dye, inactivated state
Recorded measurements of IC50, one per entry
Numbers only here, please. The scale is µM.

Past entries and their recorded results:
molecule: O=S(=O)(Nc1cscn1)c1c(F)cc(NCc2c(F)ccc(F)c2CN2CCC2)c(F)c1F [Example 215, 2,2,2-trifluoroacetate]
number: 0.021

molecule: O=S(=O)(Nc1cscn1)c1c(F)cc(NCc2c(CN3CCC3)cccc2C2CC2)cc1F [Example 211, 2,2,2-trifluoroacetate]
number: 1.76

molecule: O=S(=O)(Nc1cscn1)c1cc(Cl)c(NCc2c(F)cccc2CN2CCOCC2)cc1F
number: 9.06

Field: next molecule
Exercise: Suppose we examine the molecule COC1CN(Cc2cccc(F)c2CNc2cc(F)c(S(=O)(=O)Nc3cscn3)cc2Cl)C1 [Example 248, 2,2,2-trifluoroacetate] ; what IC50 value has been reported?
Key: 0.431
